Measured values drawn from ChEMBL document CHEMBL3826916 for this set.

System: Plasmodium falciparum
Assay protocol: Antiplasmodial activity against chloroquine and pyrimethamine resistant Plasmodium falciparum K1 infected in human erythrocytes after 48 hrs by [3H]hypoxanthine incorporation assay
Type: functional, organism-based
// assign fulfilled if IC50 falls strictly below 200 nM, else not fulfilled (ties count as not fulfilled)

>  <Compound>
N=C(N)c1ccc2[nH]c(Nc3ccc(Cl)c(Cl)c3)nc2c1

>  <Test target>
Plasmodium falciparum

>  <Label value>
fulfilled

$$$$
>  <Compound>
CCC(C)NC(=N)c1ccc(Nc2nc3cc(C(=N)NC(C)CC)ccc3[nH]2)cc1 (configuration not stated)

>  <Test target>
Plasmodium falciparum

>  <Label value>
not fulfilled

$$$$
>  <Compound>
N=C(N)c1ccc(Nc2nc3cc(C(=N)N)ccc3[nH]2)cc1

>  <Test target>
Plasmodium falciparum

>  <Label value>
fulfilled

$$$$
>  <Compound>
N=C(N)c1ccc(Nc2nc3ccccc3[nH]2)cc1

>  <Test target>
Plasmodium falciparum

>  <Label value>
not fulfilled

$$$$
>  <Compound>
CC(C)CNC(=N)c1ccc(Nc2nc3cc(C(=N)NCC(C)C)ccc3[nH]2)cc1

>  <Test target>
Plasmodium falciparum

>  <Label value>
fulfilled

$$$$
>  <Compound>
Cc1cc2[nH]c(Nc3ccc(C(=N)N)cc3)nc2cc1Cl

>  <Test target>
Plasmodium falciparum

>  <Label value>
not fulfilled

$$$$
>  <Compound>
N=C(NC1CCCCC1)c1ccc(Nc2nc3cc(C(=N)NC4CCCCC4)ccc3[nH]2)cc1

>  <Test target>
Plasmodium falciparum

>  <Label value>
fulfilled

$$$$
>  <Compound>
CC(C)NC(=N)c1ccc(Nc2nc3cc(C(=N)NC(C)C)ccc3[nH]2)cc1

>  <Test target>
Plasmodium falciparum

>  <Label value>
fulfilled

$$$$
>  <Compound>
N=C(N)c1ccc(Nc2nc3cc(C(F)(F)F)ccc3[nH]2)cc1

>  <Test target>
Plasmodium falciparum

>  <Label value>
not fulfilled

$$$$
>  <Compound>
N=C(N)c1ccc2[nH]c(Nc3ccc(Cl)cc3)nc2c1

>  <Test target>
Plasmodium falciparum

>  <Label value>
not fulfilled

$$$$
>  <Compound>
N=C(N)c1ccc(Nc2nc3cc(Cl)ccc3[nH]2)cc1

>  <Test target>
Plasmodium falciparum

>  <Label value>
not fulfilled

$$$$
>  <Compound>
N=C(N)c1ccc2[nH]c(Nc3ccccc3)nc2c1

>  <Test target>
Plasmodium falciparum

>  <Label value>
not fulfilled

$$$$

----------
System: Trypanosoma brucei rhodesiense
Assay protocol: Antiparasitic activity against bloodstream forms of Trypanosoma brucei rhodesiense STIB 900 assessed as growth inhibition after 72 hrs by resazurin assay
Format: functional, organism-based
Measurement conditions: STIB 900, 72 h
pIC50: −log10 of the molar value.
Please note: 1.0 applies when pIC50 is 8 or greater, and 0.0 applies otherwise.

>  <Compound>
N=C(N)c1ccc(Nc2nc3cc(Cl)ccc3[nH]2)cc1

>  <Label value>
0.0

$$$$
>  <Compound>
CC(C)NC(=N)c1ccc(Nc2nc3cc(C(=N)NC(C)C)ccc3[nH]2)cc1

>  <Label value>
0.0

$$$$
>  <Compound>
Cc1cc2[nH]c(Nc3ccc(C(=N)N)cc3)nc2cc1Cl

>  <Label value>
0.0

$$$$
>  <Compound>
N=C(N)c1ccc(Nc2nc3cc(C(=N)N)ccc3[nH]2)cc1

>  <Label value>
1.0

$$$$
>  <Compound>
N=C(N)c1ccc(Nc2nc3cc(C(F)(F)F)ccc3[nH]2)cc1

>  <Label value>
0.0

$$$$
>  <Compound>
N=C(N)c1ccc2[nH]c(Nc3ccccc3)nc2c1

>  <Label value>
0.0

$$$$
>  <Compound>
N=C(N)c1ccc(Nc2nc3ccccc3[nH]2)cc1

>  <Label value>
0.0

$$$$
>  <Compound>
N=C(NC1CCCCC1)c1ccc(Nc2nc3cc(C(=N)NC4CCCCC4)ccc3[nH]2)cc1

>  <Label value>
1.0

$$$$
>  <Compound>
N=C(N)c1ccc2[nH]c(Nc3ccc(Cl)c(Cl)c3)nc2c1

>  <Label value>
0.0

$$$$
>  <Compound>
N=C(N)c1ccc2[nH]c(Nc3ccc(Cl)cc3)nc2c1

>  <Label value>
0.0

$$$$
>  <Compound>
CCC(C)NC(=N)c1ccc(Nc2nc3cc(C(=N)NC(C)CC)ccc3[nH]2)cc1 (configuration not stated)

>  <Label value>
0.0

$$$$
